- experiment: Solubility in water at 1 mg/ml
- Assay type: physicochemical
- appliedConditions: buffer
Residues, ends and D or L forms follow the SMILES beside them.
property: solubility

Study these solved cases before continuing.
{"molecule": "CCCC[C@H](NC(=O)CNC(=O)[C@H](CS)NC(=O)[C@H](CCCNC(=N)N)NC(C)=O)C(N)=O (HELM PEPTIDE1{[ac].R.C.G.[Nle].[am]}$$$$V2.0)", "solubility": "Soluble"}
{"molecule": "CCCCCCCCNC(=O)C[C@H](NC(=O)CNC(=O)[C@H](CS)NC(=O)[C@@H](N)CCCNC(=N)N)C(N)=O (HELM PEPTIDE1{R.C.G.D.[am]}|CHEM1{[CCCCCCCCN[*:1]]}$PEPTIDE1,CHEM1,4:R3-1:R1$$$V2.0)", "solubility": "Insoluble"}
{"molecule": "CC(=O)N[C@@H](CS)C(=O)NCC(=O)N[C@@H](CCCNC(=N)N)C(=O)O (Ac-Cys-Gly-Arg-OH)", "solubility": "Insoluble"}
{"molecule": "CC(C)[C@H](NC(=O)CNC(=O)[C@H](CS)NC(=O)[C@@H](N)CCCNC(=N)N)C(N)=O (H-RCGV-NH2)", "solubility": "Soluble"}
{"molecule": "CC(=O)N[C@@H](CS)C(=O)NCC(=O)N[C@@H](CCCNC(=N)N)C(=O)N[C@@H](CCCCN)C(=O)O (Ac-CGRK-OH)", "solubility": "Soluble"}

Given the entry CCCCCCCCNC(=O)C[C@H](NC(=O)CNC(=O)[C@H](CS)NC(=O)[C@H](CCCNC(=N)N)NC(C)=O)C(N)=O (HELM PEPTIDE1{[ac].R.C.G.D.[am]}|CHEM1{[CCCCCCCCN[*:1]]}$PEPTIDE1,CHEM1,5:R3-1:R1$$$V2.0) , report its measured solubility.
Soluble

Query CCCCCCCC(=O)N[C@@H](CS)C(=O)NCC(=O)N[C@@H](CCCNC(=N)N)C(=O)O (HELM PEPTIDE1{[CCCCCCCC(=O)[*:2]].C.G.R}$$$$V2.0) next
Insoluble

Query CC(=O)N[C@@H](CCCNC(=N)N)C(=O)N[C@@H](CS)C(=O)NCC(N)=O (Ac-Arg-Cys-Gly-NH2) next
Soluble

Query CCCCCCCCCCCC(=O)N[C@@H](CS)C(=O)NCC(=O)N[C@@H](CCCNC(=N)N)C(=O)O (HELM PEPTIDE1{[CCCCCCCCCCCC(=O)[*:2]].C.G.R}$$$$V2.0) next
Insoluble

Reference source for all entries: ChEMBL document CHEMBL4814066
